From: ChEMBL document CHEMBL1158153

Ki, Histamine H3 receptor (Rattus norvegicus): measured values

- compound: "C[C@@H]1CCCN1CCc1ccc(C2=CC[C@H]3CN(C(=O)c4ccccc4)C[C@@H]23)cc1"
  measurement.target: "Histamine H3 receptor (Rattus norvegicus)"
  unit.tag: "nM"
  Ki: 3
- compound: "O=C(C1CCCC1)N1C[C@@H]2CC=C(c3ccc(CCN4CCCC4)cc3)[C@@H]2C1"
  measurement.target: "Histamine H3 receptor (Rattus norvegicus)"
  unit.tag: "nM"
  Ki: 3
- compound: "O=C(C1CCOC1)N1C[C@@H]2CC=C(c3ccc(CCN4CCCC4)cc3)[C@@H]2C1 (stereo partly specified)"
  measurement.target: "Histamine H3 receptor (Rattus norvegicus)"
  unit.tag: "nM"
  Ki: 4
- compound: "O=C(c1ccccc1)N1C[C@@H]2CC=C(c3ccc(CCN4CCCC4)cc3)[C@@H]2C1"
  measurement.target: "Histamine H3 receptor (Rattus norvegicus)"
  unit.tag: "nM"
  Ki: 21
- compound: "C[C@@H]1CCCN1CCc1ccc(C2=CC[C@H]3CN(C(=O)Cc4ccccc4)C[C@@H]23)cc1"
  measurement.target: "Histamine H3 receptor (Rattus norvegicus)"
  unit.tag: "nM"
  Ki: 0.3
- compound: "O=C(Cc1ccccc1)N1C[C@@H]2CC=C(c3ccc(CCN4CCCC4)cc3)[C@@H]2C1"
  measurement.target: "Histamine H3 receptor (Rattus norvegicus)"
  unit.tag: "nM"
  Ki: 7
- compound: "O=C(CO)N1C[C@@H]2CC=C(c3ccc(CCN4CCCC4)cc3)[C@@H]2C1"
  measurement.target: "Histamine H3 receptor (Rattus norvegicus)"
  unit.tag: "nM"
  Ki: 6
- compound: "CC(C)NC(=O)N1C[C@@H]2CC=C(c3ccc(CCN4CCCC4)cc3)[C@@H]2C1"
  measurement.target: "Histamine H3 receptor (Rattus norvegicus)"
  unit.tag: "nM"
  Ki: 20
- compound: "CS(=O)(=O)N1C[C@@H]2CC=C(c3ccc(CCN4CCCC4)cc3)[C@@H]2C1"
  measurement.target: "Histamine H3 receptor (Rattus norvegicus)"
  unit.tag: "nM"
  Ki: 27
- compound: "O=C(c1cccnc1)N1C[C@@H]2CC=C(c3ccc(CCN4CCCC4)cc3)[C@@H]2C1"
  measurement.target: "Histamine H3 receptor (Rattus norvegicus)"
  unit.tag: "nM"
  Ki: 6
- compound: "C[C@@H]1CCCN1CCc1ccc(C2=CC[C@H]3CN(C(=O)C4CCOCC4)C[C@@H]23)cc1"
  measurement.target: "Histamine H3 receptor (Rattus norvegicus)"
  unit.tag: "nM"
  Ki: 0.7

###

- measurement.target: Histamine H3 receptor (Homo sapiens, UniProt Q9Y5N1)
- Sequence (Q9Y5N1 whole entry): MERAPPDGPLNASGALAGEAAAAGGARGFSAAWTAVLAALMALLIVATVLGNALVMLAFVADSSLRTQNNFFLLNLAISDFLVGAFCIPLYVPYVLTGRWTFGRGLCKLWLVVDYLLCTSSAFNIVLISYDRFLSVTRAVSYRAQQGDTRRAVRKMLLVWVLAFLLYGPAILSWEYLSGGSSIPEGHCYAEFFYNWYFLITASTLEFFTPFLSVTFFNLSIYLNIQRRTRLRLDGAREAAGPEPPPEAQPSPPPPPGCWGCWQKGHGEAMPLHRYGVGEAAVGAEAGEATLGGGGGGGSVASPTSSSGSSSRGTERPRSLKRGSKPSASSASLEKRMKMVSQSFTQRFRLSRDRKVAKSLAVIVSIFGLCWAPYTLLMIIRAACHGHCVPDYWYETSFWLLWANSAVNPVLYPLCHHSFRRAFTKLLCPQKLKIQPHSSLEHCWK
- protocol.text: Antagonist activity at human histamine H3 receptor expressed in CHOK1 cells by [3H]R(-)-alpha-methylhistamine displacement assay
- Format: cell-based, CHO-K1
pKi: −log10 of the molar value.
Measured pKi by item
assay.endpoint: pKi

- smiles.data: "C1=C(c2ccc(CCN3CCCC3)cc2)[C@@H]2CN(CC3CC3)C[C@@H]2C1"
  measurement.target: "Histamine H3 receptor (Homo sapiens, UniProt Q9Y5N1)"
  assay.endpoint: "pKi"
  reported: 9.05
- smiles.data: "C[C@@H]1CCCN1CCc1ccc(C2=CC[C@H]3CN(C(=O)C4CCOCC4)C[C@@H]23)cc1"
  measurement.target: "Histamine H3 receptor (Homo sapiens, UniProt Q9Y5N1)"
  assay.endpoint: "pKi"
  reported: 8.70

###

- protocol.text: Bioavailability in rat at 10 mg/kg, po
- Type: ADME, organism-based
- condition.description: in vivo
assay.endpoint: bioavailability (%)

- smiles.data: "CC(C)NC(=O)N1C[C@@H]2CC=C(c3ccc(CCN4CCCC4)cc3)[C@@H]2C1"
  assay.endpoint: "bioavailability"
  reported: 22
- smiles.data: "CC(C)S(=O)(=O)N1C[C@@H]2CC=C(c3ccc(CCN4CCCC4)cc3)[C@@H]2C1"
  assay.endpoint: "bioavailability"
  reported: 3
- smiles.data: "O=C(CO)N1C[C@@H]2CC=C(c3ccc(CCN4CCCC4)cc3)[C@@H]2C1"
  assay.endpoint: "bioavailability"
  reported: 39
- smiles.data: "C[C@@H]1CCCN1CCc1ccc(C2=CC[C@H]3CN(C(=O)C4CCOCC4)C[C@@H]23)cc1"
  assay.endpoint: "bioavailability"
  reported: 66

###

- protocol.text: Tmax in rat at 10 mg/kg, po
- Assay type: ADME, organism-based
- Design: dose 10 mg/kg, route oral
- condition.description: in vivo
Measured Tmax by item
assay.endpoint: Tmax

- smiles.data: "C1=C(c2ccc(CCN3CCCC3)cc2)[C@@H]2CN(CC3CC3)C[C@@H]2C1"
  reported: "360 min"
- smiles.data: "C[C@@H]1CCCN1CCc1ccc(C2=CC[C@H]3CN(C(=O)C4CCOCC4)C[C@@H]23)cc1"
  reported: "18 min"
- smiles.data: "O=C(CO)N1C[C@@H]2CC=C(c3ccc(CCN4CCCC4)cc3)[C@@H]2C1"
  reported: "36 min"
- smiles.data: "CC(C)S(=O)(=O)N1C[C@@H]2CC=C(c3ccc(CCN4CCCC4)cc3)[C@@H]2C1"
  reported: "12 min"
- smiles.data: "CC(C)NC(=O)N1C[C@@H]2CC=C(c3ccc(CCN4CCCC4)cc3)[C@@H]2C1"
  reported: "18 min"

###

- protocol.text: Half life in rat at 10 mg/kg, po
- Format: ADME, organism-based
- Parameters: dose 10 mg/kg, route oral
- condition.description: in vivo
So basically: half-life at 5 h or higher? That is class 1. Lower than 5 h? That is class 0.

- smiles.data: "O=C(CO)N1C[C@@H]2CC=C(c3ccc(CCN4CCCC4)cc3)[C@@H]2C1"
  class.assignment: "class 0"
- smiles.data: "C1=C(c2ccc(CCN3CCCC3)cc2)[C@@H]2CN(CC3CC3)C[C@@H]2C1"
  class.assignment: "class 1"
- smiles.data: "CC(C)NC(=O)N1C[C@@H]2CC=C(c3ccc(CCN4CCCC4)cc3)[C@@H]2C1"
  class.assignment: "class 1"
- smiles.data: "C[C@@H]1CCCN1CCc1ccc(C2=CC[C@H]3CN(C(=O)C4CCOCC4)C[C@@H]23)cc1"
  class.assignment: "class 0"

###

- measurement.target: Histamine H3 receptor (Homo sapiens, UniProt Q9Y5N1)
- protocol.text: Inverse agonist activity at human H3 receptor expressed in CHOK1 cells by GTPgammaS binding assay
- Assay type: functional, cell-based, CHO-K1
pKi: −log10 of the molar value.

- smiles.data: "C1=C(c2ccc(CCN3CCCC3)cc2)[C@@H]2CN(CC3CC3)C[C@@H]2C1"
  pKi: 9.00
- smiles.data: "C[C@@H]1CCCN1CCc1ccc(C2=CC[C@H]3CN(C(=O)C4CCOCC4)C[C@@H]23)cc1"
  pKi: 8.40
